# assayed_system: T1, human GIP receptor (human) (UniProt P48546)
# T1 sequence (looked up): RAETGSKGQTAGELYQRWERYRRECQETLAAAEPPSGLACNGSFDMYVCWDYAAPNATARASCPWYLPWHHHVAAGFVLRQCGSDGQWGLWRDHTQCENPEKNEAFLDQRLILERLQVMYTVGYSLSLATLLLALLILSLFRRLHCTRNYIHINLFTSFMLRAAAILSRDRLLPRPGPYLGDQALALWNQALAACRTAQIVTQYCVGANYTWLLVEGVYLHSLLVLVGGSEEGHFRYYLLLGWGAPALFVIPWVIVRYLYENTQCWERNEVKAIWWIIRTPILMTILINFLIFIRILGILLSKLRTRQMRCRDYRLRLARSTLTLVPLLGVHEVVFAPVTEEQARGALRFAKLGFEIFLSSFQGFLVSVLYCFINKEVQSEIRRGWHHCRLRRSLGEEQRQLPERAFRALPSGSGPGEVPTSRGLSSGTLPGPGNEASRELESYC
# assay_comment: cell-based or functional assay
Starred links: 1 amine or outer side, 2 acyl side, 3 side chain; linkers in the order of their positions; H or OH if unused. Non-standard residues stand in square brackets, D forms with d. Groups on a side chain read outwards from the residue. No end group written: not given here. *: point of attachment. C18 diacid = O=C(O)CCCCCCCCCCCCCCCCC(=O)*; γGlu = O=C(O)[C@H](CCC(=O)[*:2])N[*:1]; αMeL = CC(C)C[C@](C)(N)C(=O)O; Dap = NC[C@H](N)C(=O)O; AEEA = NCCOCCOCC(=O)O; Aib = CC(C)(N)C(=O)O
measurement_type: Relative cAMP EC50 (nM)
# output: bare number, implied unit nM

Could you tell me which Relative cAMP EC50 is on file for YXQGTXTSDXXIXLDXKAQXXFIEYLSEGGPSSGEPPPSGTE (synthetic construct; SITE 2: note = 2-Aminoisobutyric Acid; SITE 6: note = alpha-methyl-2-fluoro-L-phenylalanine; SITE 10: note = 3-(4-Pyridyl)-L-alanine; SITE 11: note = alpha-methyl-L-serine; SITE 13: note = alpha-methyl-leucine; SITE 16: note = L-ornithine; SITE 17: note = Lysine is chemically mo) [Example 530] ?
0.874

Could you tell me which Relative cAMP EC50 is on file for Y[Aib]QGTFTSDYS[Dap][αMeL]LDKK([AEEA-γGlu-C18 diacid])AQ[Aib]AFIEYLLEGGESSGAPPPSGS-NH2 [Example 360] ?
0.45

Could you tell me which Relative cAMP EC50 is on file for YXQGTFTSDFSXXLDXKAQXAFIEXLLEGGPSSGAPPPGGSEE (non-natural residues; Lys acylated C18 diacid via γGlu2; C-term amide; synthetic construct; SITE 2: note = 2-Aminoisobutyric Acid; SITE 12: note = L-ornithine; SITE 13: note = alpha-methyl-leucine; SITE 16: note = L-ornithine; SITE 17: note = Lysine is chemically modified through conjugation of the epsilon-amino group of the Lysine side chain with (gamma-Glu)2-CO-(CH2)) [Example 1050] ?
0.152

Could you tell me which Relative cAMP EC50 is on file for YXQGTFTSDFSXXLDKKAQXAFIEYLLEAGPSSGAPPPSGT (Aib, Orn, αMeL, D-Ala; acylated lysine; amide; synthetic construct; SITE 2: note = 2-Aminoisobutyric Acid; SITE 12: note = L-ornithine; SITE 13: note = alpha-methyl-leucine; SITE 17: note = Lysine is chemically modified through conjugation of the epsilon-amino group of the Lysine side chain with (gamma-Glu)3-CO-(CH2)16-CO2H; SITE 20: note = 2-Am) [Example 205] ?
0.16

Could you tell me which Relative cAMP EC50 is on file for YXQGTFTSDFSKXLDKKAQXAFIEYLLEGGPSSGAPPPGGS (Aib, αMeL; acylated Lys; C-terminal amide; synthetic construct; SITE 2: note = 2-Aminoisobutyric Acid; SITE 13: note = alpha-methyl-leucine; SITE 17: note = Lysine is chemically modified through conjugation of the epsilon-amino group of the Lysine side chain with (2-[2-(2-Amino-ethoxy)-ethoxy]-acetyl)-(gamma-Glu)-CO-(CH2) 18-CO2H; SITE 20: n) [Example 18] ?
0.337

Could you tell me which Relative cAMP EC50 is on file for YXQGTFTSDYSXXLDKKAQXAFIEYLLEGGESSGAPPPSGS (synthetic construct; SITE 2: note = 2-Aminoisobutyric Acid; SITE 12: note = L-ornithine; SITE 13: note = alpha-methyl-leucine; SITE 17: note = Lysine is chemically modified through conjugation of the epsilon-amino group of the Lysine side chain with (2-[2-(2-Amino-ethoxy)-ethoxy]-acetyl)-(gamma-Glu)) [Example 359] ?
0.281
